tested on: SF-268 CNS; assay: NCI tumour cell line growth inhibition, 48 h
The molecules listed here are annotated with their TGI.

Identify measured TGI corresponding to CCOC(=O)CN1C(=O)C(=O)N(c2ccc(OC)c3ccccc23)C1=O
> 100 µM

Report TGI for CC(C)(CO)CNc1cc(Cl)nc(N)n1
> 100 µM

Please supply the value of reported TGI for the item CCN1CCC(O)(/C=C/c2ccccc2)C(C(=O)/C=C/c2ccccc2)C1 (stereo not drawn)
7.36 µM

----------
The entries below are paired with their reported TGI.
system: SK-MEL-2 melanoma; experiment: NCI tumour cell line growth inhibition, 48 h

Answered examples (3):
molecule	TGI
Cc1cn2cc(-c3ccc4c(c3)CC(=O)N4)nc2s1	> 100 µM
COC1CC(n2cc(F)c(N)nc2=O)OC1CO (centres undefined)	> 100 µM
Cc1nccn1S(=O)(=O)c1ccc(Cl)cc1	> 100 µM

Answer with the recorded TGI for the molecule listed here: O=C1C(OC(=O)c2ccccc2)=C(c2ccc(O)cc2)C(=O)C(OC(=O)c2ccccc2)=C1c1ccc(O)cc1
> 100 µM

Give recorded TGI. COc1ccc(C2NC(N)=C(C#N)C3=C2C(C)CCC3)cc1OC (centres undefined)
> 100 µM

Please indicate TGI recorded for NC(=S)NS(=O)(=O)c1ccc(Cl)cc1
> 100 µM

----------
system: A498 renal; test: NCI tumour cell line growth inhibition, 48 h
readout-label: TGI

Below: 5 compounds and their reported TGI.
compound	TGI
COc1ccc2c(c1)[nH]c1c3ccc(OC)cc3oc(=O)c21	> 100 µM
CC1=C(C(=O)NCc2ccccc2)C(c2ccco2)C(C(=O)NCc2ccccc2)=C(C)N1	> 100 µM
NC1=C(O)C(=O)C(c2c[nH]c3ccc(OCc4ccccc4)cc23)O1 (stereo unspecified)	> 100 µM
COc1cc2nc(-c3cccs3)nc(N3C(c4cc(OC)c(OC)c(OC)c4)=NNC(=O)c4ccccc43)c2cc1OC	> 100 µM
O=C1CC2OCC=C3CN4CCC5(C(=O)O)C(N1)C2C3CC45 (stereo unspecified)	> 100 µM

Proceeding to the next compound to report its TGI.
Find the measured TGI of CCCCCCCCCCCCCCCCCCNc1nc(=O)n(C2CC(OP(=O)(O)OCC3OC(n4cc(F)c(=O)[nH]c4=O)CC3O)C(CO)O2)cc1F (stereo unspecified) and report it.
> 100 µM

----------
system: SNB-75 CNS; assay: NCI tumour cell line growth inhibition, 48 h
// values below are reported TGI

Answered examples (4):
compound	TGI
CN(C)C(=S)/N=c1\ss/c(=N\S(=O)(=O)c2ccccc2)n1C	> 100 µM
O=C(N/N=C/c1ccc(N(CCCl)CCCl)cc1)c1ccc(C(=O)N/N=C/c2ccc(N(CCCl)CCCl)cc2)cc1	> 100 µM
NC1=C(O)C(=O)C(c2c[nH]c3ccc(OCc4ccccc4)cc23)O1 (stereo not given)	> 91.3 µM
CCN(CCC#N)C(=O)Nc1ccccc1	> 100 µM

# ---- query compound ----
Fill in TGI for record Cc1cn2cc(-c3ccc4c(c3)CC(=O)N4)nc2s1
> 100 µM

----------
compounds and their reported TGI
tested on: TK-10 renal; assay: NCI tumour cell line growth inhibition, 48 h
Write it as a number; the unit µM goes unstated.

Identify the reported TGI for the following entry. C=CCO[C@H]1CC[C@@]2(C)C(CC[C@]3(C)C2CC=C2[C@@H]4[C@@H](C)C(C)CC[C@]4(C(=O)O)CCC23C)C1(C)C (some centres undefined)
32.2

Provide measured TGI value, entry: COC(=O)C#CC(N)=O
99.1

Look up TGI of CSc1nc2ccc(C)cc2cc1/C=C1/C=C(c2ccccc2)NC1=O and report it.
8.46

Answer with reported TGI of CCN(CC)CCNc1ccc([N+](=O)[O-])c2nc3ccc(OC)cc3c(N)c12
2.93

----------
# TGI per record follows
tested on: NCI-H460 lung; assay: NCI tumour cell line growth inhibition, 48 h

compound	TGI
CC(C)(C)CC(C)(C)NCC(O)COc1ccc(C(C)(C)c2ccc(OCC(O)CNC(C)(C)CC(C)(C)C)cc2)cc1 (centres undefined)	0.782 µM
CC1CN=C(c2ccc(CN3CCC(CCCC4CCN(Cc5ccc(C6=NCC(C)N6)cc5)CC4)CC3)cc2)N1 (centres undefined)	36.8 µM

Using known records, supply TGI for CC1=NN(c2nc(N)nc(-c3cc4ccccc4oc3=N)n2)C(C)(C)C1
34.2 µM

Give TGI for CCCC(=O)OC(OC(=O)CCC)c1ccc([N+](=O)[O-])o1
> 100 µM

Dear colleague, please send me the reported TGI for CCOP(=O)(Cc1nc(C#N)c(N)o1)OCC when you can.
> 100 µM

Please indicate TGI recorded for Oc1ccc(O)c(-n2cccn2)c1-n1cccn1
> 100 µM

Provide one value: measured TGI of Cn1cccc1-c1cc(-c2ccccc2)nc(N)c1C#N
> 100 µM

Return value of TGI for input O=c1onc(Nc2ccccc2)n1-c1ccccc1 , no commentary.
> 100 µM

Tell me its TGI given CCCCOP1(=O)CC(C)=C(Cl)C(C)(OC)C1 (centres undefined) as the entry.
> 100 µM

Indicate the recorded TGI value for this compound: Nc1ncc2c(n1)-c1ccccc1OC2
> 100 µM

Identify measured TGI corresponding to N#Cc1c(N2CCCC2)nsc1Nc1ccccc1
> 100 µM

Consider the compound Cc1c2ccccc2c(C)n2c1nc1cc(Cl)c(Cl)cc12 and give its recorded TGI.
> 100 µM

Note down TGI recorded for O=C1/C(=C/c2ccc(O)cc2)Oc2ccccc21
> 100 µM

Quote TGI reported for COc1ccc(/C=C(/c2ccc(OC)cc2)c2c(Cl)cc(Cl)c(/C(=C\c3ccc(OC)cc3)c3ccc(OC)cc3)c2N=Nc2ccccc2)cc1 please.
> 100 µM

----------
tested on: TK-10 renal; test: NCI tumour cell line growth inhibition, 48 h
As shown below, each of these molecules has a reported TGI value.

Past entries and their recorded results:
molecule	readout-label	result
CC(C)=C=CP(=O)(O)c1ccccc1	TGI	> 100 µM
OC(CCl)CN1CC[N+]2(CC1)CC[N+]1(CCN(CC(O)CCl)CC1)CC2 (stereo unspecified)	TGI	> 50 µM
CC1(C2CCC3(C)C(C2)C3Sc2ccccc2)OCCO1 (stereo unspecified)	TGI	> 100 µM
CC1=C2C3OC(=O)C(C)C3C(O)C[C@@]2(C)C(=O)CC1 (stereo partly specified)	TGI	> 100 µM
CCN(CC)C(=O)c1cc([N+](=O)[O-])c(=O)n2c1[nH]c1ccccc12	TGI	> 100 µM

Now turn to the next molecule.
Indicate its recorded TGI; the molecule in question is NC(=O)c1nc(-c2ccc(Cl)c(Cl)c2)nc2ccccc12
> 100 µM

----------
// reported TGI for each item listed
system: EKVX NSCLC; assay: NCI tumour cell line growth inhibition, 48 h

Quick one: give measured TGI for CCN(CCC#N)C(=O)Nc1ccccc1
> 100 µM

----------
tested on: NCI-H23 lung; assay: NCI tumour cell line growth inhibition, 48 h
# reported TGI; entries follow

Here are 4 compounds together with their reported answers.
compound	readout-label	result
c1ccc(-c2cc3n4c(-c5ccccc5)nn(-c5ccccc5)c4cnc-3n2)cc1	TGI	> 50 µM
O=C1C(=Cc2ccc(F)cc2)C(=O)c2ccccc21	TGI	> 100 µM
Cc1oc2nc(N(C)C)n3cnnc3c2c1C	TGI	> 100 µM
O=C(CN1CCN(c2ccccn2)CC1)N1CCCn2c1nc1ccccc1c2=O	TGI	> 100 µM

Consider the compound CN1C/C(=C\c2cccs2)C(=O)/C(=C/c2cccs2)C1 and give its recorded TGI.
> 100 µM

----------
Listed here: items and their measured TGI.
tested on: LOX IMVI melanoma; assay: NCI tumour cell line growth inhibition, 48 h

// solved cases for TGI follow
molecule	TGI
O=S(=O)(Nc1ccc(Cl)c(Cl)c1)c1ccc(-c2cnc(C3CC3)o2)cc1	19.3 µM
OCC(S)CS.[Bi] (stereo not given)	> 100 µM
COc1ccc(C2=Nc3c(nc(SC)[nH]c3=O)NC(c3ccccc3)C2)cc1 (stereo not given)	> 100 µM

Assign TGI to the following record: COc1ccc(/C=C/C(=O)c2ccc(Nc3nc(Nc4ccc(F)cc4)nc(Nc4ccc(F)cc4)n3)cc2)cc1
67.7 µM

Provide measured TGI value, entry: N#Cc1cc2c(cc1Cl)SC(=Nc1ccccc1)N(S(=O)(=O)c1ccc(Br)s1)S2(=O)=O
43.6 µM

Query TGI for CC1OC(=O)N2CCC=CC12 (stereo not given)
> 100 µM

Return TGI for the following molecule: CSc1nc2ccc(C)cc2cc1/C=C1/C=C(c2ccccc2)NC1=O
33.2 µM

Give recorded TGI. c1ccc(-c2cc3n4c(-c5ccccc5)nn(-c5ccccc5)c4cnc-3n2)cc1
> 50 µM

----------
system: RPMI-8226 leukemia; assay: NCI tumour cell line growth inhibition, 48 h; in the data active means GI50 below about 0.43 µM; inactive means the rest
Your response should consist of one outcome taken from T (active), F (inactive)

COc1ccc(/C=C/C(=O)c2ccc(Nc3nc(Nc4ccc(F)cc4)nc(Nc4ccc(F)cc4)n3)cc2)cc1 F
C[C@@H](C[C@H](CCO)c1ccccc1)c1ccc2ccccc2c1 F

Then there is this compound:
Given CC[C@@H](C(=O)[C@@H](C)[C@@H](O)[C@H](C)[C@@H]1O[C@@H]([C@@H](CC)C(=O)O)CC[C@@H]1C)[C@H]1O[C@]2(C=C[C@@H](O)[C@]3(CC[C@@](C)([C@H]4CC[C@](O)(CC)[C@H](C)O4)O3)O2)[C@H](C)C[C@@H]1C , state the outcome it received in this test.
T
